biological target: DLG4_2, P78352; experiment: holdup assay; parameters: key: below the threshold = too weak to quantify, mostly under pKd 3.1 to 4; conditions: plain residues with an end cap or a label only (N-terminal biotin on a linker: ttds)
Sequence (P78352 155-259): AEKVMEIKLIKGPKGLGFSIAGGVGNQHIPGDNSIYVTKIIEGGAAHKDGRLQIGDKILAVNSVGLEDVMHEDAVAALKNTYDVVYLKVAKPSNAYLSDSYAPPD
READOUT: pKd

BINDER | READOUT | RESULT
GQDSREETQL [KCNT2, Q6UVM3] | pKd | 3.62
ERKLSSESQV [LRP4, O75096] | pKd | 4.69
TVASEKESVM [SLC1A5, Q15758] | pKd | below the threshold
IDNDTESTAL [ARHGAP17, Q68EM7] | pKd | below the threshold
SRPQRTQTQV [HPV67-E6, A4U7F2] | pKd | 4.96
STLTIFETAL [ABCC4, O15439] | pKd | 4.23
IYVPEAQTRL [DLGAP4, Q9Y2H0] | pKd | below the threshold
QSARYRDTEL [TJP2, Q9UDY2] | pKd | 3.83
SVWLRKETRV [CYSLTR2, Q9NS75] | pKd | 5.38
RSLEEEESQL [GRASP, Q7Z6J2] | pKd | 3.84
SSRTRRETQL [HPV16-E6, P03126] | pKd | 4.66
VLRLQSETSV [VANGL1, Q8TAA9] | pKd | 4.71
PKTPPTDTSV [KIR3DL3, Q8N743] | pKd | 4.22
